The reported numbers originate from paper PMC10786891.

- Target: T1, EsCas13d, nuclease-dead (Eubacterium siraeum, UniProt B0MS50, R295A;H300A;R849A;H854A)
- T1 sequence: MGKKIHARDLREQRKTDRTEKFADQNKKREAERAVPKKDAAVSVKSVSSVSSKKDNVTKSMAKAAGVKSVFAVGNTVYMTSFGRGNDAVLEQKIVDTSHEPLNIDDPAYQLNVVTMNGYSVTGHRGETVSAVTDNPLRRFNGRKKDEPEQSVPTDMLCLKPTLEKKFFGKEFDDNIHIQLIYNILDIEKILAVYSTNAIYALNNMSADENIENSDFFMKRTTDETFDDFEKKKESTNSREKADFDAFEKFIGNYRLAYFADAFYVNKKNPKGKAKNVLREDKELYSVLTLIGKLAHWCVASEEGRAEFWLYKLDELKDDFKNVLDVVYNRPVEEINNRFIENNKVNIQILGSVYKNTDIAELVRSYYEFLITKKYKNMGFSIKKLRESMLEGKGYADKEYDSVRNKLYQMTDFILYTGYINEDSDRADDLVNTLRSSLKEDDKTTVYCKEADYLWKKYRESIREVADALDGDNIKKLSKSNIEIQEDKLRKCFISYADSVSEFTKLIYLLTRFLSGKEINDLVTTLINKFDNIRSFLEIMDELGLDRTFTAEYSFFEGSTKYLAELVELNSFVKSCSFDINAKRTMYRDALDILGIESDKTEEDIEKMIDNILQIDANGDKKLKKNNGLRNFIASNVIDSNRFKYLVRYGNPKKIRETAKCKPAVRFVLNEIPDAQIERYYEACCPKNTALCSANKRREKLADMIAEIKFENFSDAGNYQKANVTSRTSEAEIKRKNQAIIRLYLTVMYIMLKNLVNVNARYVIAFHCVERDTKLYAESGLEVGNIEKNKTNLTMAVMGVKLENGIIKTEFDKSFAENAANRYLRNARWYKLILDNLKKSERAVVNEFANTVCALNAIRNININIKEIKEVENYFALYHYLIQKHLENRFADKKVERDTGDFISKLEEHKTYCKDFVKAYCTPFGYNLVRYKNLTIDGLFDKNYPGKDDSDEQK
- Run Description: crRNA (strand 1, pre-loaded); Mg2+; 40 mM Tris-HCl pH 7.5, 150 mM NaCl, 6 mM MgCl2, 1 mM DTT, 0.1% Tween-20, 0.2 mg/ml BSA; 25 C; 10 min per concentration, then washed
- Condition Info: tags: His6-TwinStrep-SUMO cleaved; N-terminal SNAP kept (SNAP-Surface 488); label: 3' end held by stalled T7 RNA polymerase
Answer each item with its documented Kd.
Please respond with the number in nM and leave the unit unwritten.

Specify measured Kd for target 2 MT 5'PFS GGU 3'PFS UGC (mixed) RNA 1: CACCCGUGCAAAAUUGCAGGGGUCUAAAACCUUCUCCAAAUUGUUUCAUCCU RNA 2: GGGAAUGGAUCCACAUCUACGAAUUCGGUAGGAUGAAACAAUUUGGAGAAGUGCAGAUCGGAAGAGCACACGU .
23

For target 1 insA 3' of 17,insC 3' of 17 (mixed) RNA 1: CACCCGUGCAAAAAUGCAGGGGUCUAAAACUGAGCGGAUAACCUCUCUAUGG RNA 2: GGGAAUGGAUCCACAUCUACGAAUUCGUACCAUAGACAGAGGUUAUCCGCUCACCGAGAUCGGAAGAGCACACGU , write its Kd.
41.4

For the binder target 1 del8,del14 (mixed) RNA 1: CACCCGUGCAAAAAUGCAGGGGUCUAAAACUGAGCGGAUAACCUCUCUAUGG RNA 2: GGGAAUGGAUCCACAUCUACGAAUUCGUACCAUAGAGGGUUACCGCUCACCGAGAUCGGAAGAGCACACGU , give its measured Kd value.
34.1

Could you please provide reported Kd for target 2 MT 5'PFS CUC 3'PFS CAC (mixed) RNA 1: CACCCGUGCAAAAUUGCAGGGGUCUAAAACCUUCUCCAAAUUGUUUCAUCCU RNA 2: GGGAAUGGAUCCACAUCUACGAAUUCCUCAGGAUGAAACAAUUUGGAGAAGCACAGAUCGGAAGAGCACACGU ? Thanks!
3.9

Given the binder target 1 MT 5'PFS GCG 3'PFS CAA (mixed) RNA 1: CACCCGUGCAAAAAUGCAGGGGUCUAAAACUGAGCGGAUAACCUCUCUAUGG RNA 2: GGGAAUGGAUCCACAUCUACGAAUUCGCGCCAUAGAGAGGUUAUCCGCUCACAAAGAUCGGAAGAGCACACGU , write its reported Kd.
49.5

Please report Kd for the following binder: target 1 insC 3' of 8,insG 3' of 4 (mixed) RNA 1: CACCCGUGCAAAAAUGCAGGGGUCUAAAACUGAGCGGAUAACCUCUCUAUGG RNA 2: GGGAAUGGAUCCACAUCUACGAAUUCGUACCAUAGAGAGGUUAUCCCGCGUCACCGAGAUCGGAAGAGCACACGU
12.8

State its Kd for this binder: target 3 G19U,U20G (mixed) RNA 1: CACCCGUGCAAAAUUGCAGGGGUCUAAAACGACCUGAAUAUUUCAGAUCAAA RNA 2: GGGAAUGGAUCCACAUCUACGAAUUCGUUUUGUAUCUGAAAUAUUCAGGUCUGCAGAUCGGAAGAGCACACGU
33.5

Name the recorded Kd of the binder listed here: target 1 C7G,C21A (mixed) RNA 1: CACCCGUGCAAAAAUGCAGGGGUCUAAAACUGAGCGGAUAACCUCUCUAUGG RNA 2: GGGAAUGGAUCCACAUCUACGAAUUCGUACAAUAGAGAGGUUAUGCGCUCACCGAGAUCGGAAGAGCACACGU
30

Report measured Kd; entry is target 1 MT 5'PFS GUG 3'PFS UAU (mixed) RNA 1: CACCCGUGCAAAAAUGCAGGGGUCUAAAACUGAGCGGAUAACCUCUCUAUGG RNA 2: GGGAAUGGAUCCACAUCUACGAAUUCGUGCCAUAGAGAGGUUAUCCGCUCAUAUAGAUCGGAAGAGCACACGU
11.3

Output measured Kd for this item: target 1 insC 3' of 8,insA 3' of 3 (mixed) RNA 1: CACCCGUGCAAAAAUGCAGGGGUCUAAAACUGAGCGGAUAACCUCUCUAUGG RNA 2: GGGAAUGGAUCCACAUCUACGAAUUCGUACCAUAGAGAGGUUAUCCCGCUACACCGAGAUCGGAAGAGCACACGU
11.8

Determine from records and report Kd for target 1 del4,del11 (mixed) RNA 1: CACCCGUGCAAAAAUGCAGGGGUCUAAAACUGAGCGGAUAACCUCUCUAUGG RNA 2: GGGAAUGGAUCCACAUCUACGAAUUCGUACCAUAGAGAGGUAUCCGUCACCGAGAUCGGAAGAGCACACGU
100

Tell me its Kd given target 2 MT 5'PFS GUC 3'PFS CUU (mixed) RNA 1: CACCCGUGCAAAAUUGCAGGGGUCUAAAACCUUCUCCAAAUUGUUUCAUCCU RNA 2: GGGAAUGGAUCCACAUCUACGAAUUCGUCAGGAUGAAACAAUUUGGAGAAGCUUAGAUCGGAAGAGCACACGU as the entry.
13.9

Answer with the recorded Kd for the binder listed here: target 1 insG 3' of 22,insC 3' of 1 (mixed) RNA 1: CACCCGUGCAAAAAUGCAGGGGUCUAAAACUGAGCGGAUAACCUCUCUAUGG RNA 2: GGGAAUGGAUCCACAUCUACGAAUUCGUACGCAUAGAGAGGUUAUCCGCUCACCCGAGAUCGGAAGAGCACACGU
25.6

Output Kd of target 1 insG 3' of 10,insA 3' of 10 (mixed) RNA 1: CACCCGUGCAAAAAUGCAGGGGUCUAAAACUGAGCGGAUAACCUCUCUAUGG RNA 2: GGGAAUGGAUCCACAUCUACGAAUUCGUACCAUAGAGAGGUUGAAUCCGCUCACCGAGAUCGGAAGAGCACACGU
10.7
